- Tested on: BGC-823
- Test Name: Cytotoxicity against human BGC823 cells by MTT assay
- Type: functional, cell-based
Value Kind: IC50 (nM)
Quick reminder: number only, in nM, skip the unit.

Worked set:
CC1(C)CC[C@]23CO[C@@]4(CC[C@@H]5[C@@]6(C)CC[C@H](O[C@@H]7OC[C@H](O[C@@H]8O[C@H](CO)[C@@H](O)[C@H](O)[C@H]8O[C@@H]8OC[C@@H](O)[C@H](O)[C@H]8O)[C@H](O)[C@H]7O[C@@H]7O[C@H](CO)[C@@H](O)[C@H](O)[C@H]7O)C(C)(C)[C@@H]6CC[C@@]5(C)[C@]4(C)C[C@H]2O)[C@@H]3C1 [LYSIKOKIANOSIDE 1]    1750
CC1(C)CC[C@]23CO[C@@]4(CC[C@@H]5[C@@]6(C)CC[C@H](O[C@@H]7OC[C@H](O[C@@H]8O[C@H](CO)[C@@H](O)[C@H](O)[C@H]8O[C@@H]8OC[C@@H](O)[C@H](O)[C@H]8O)[C@H](O)[C@H]7O[C@@H]7O[C@H](CO)[C@@H](O)[C@H](O)[C@H]7O)C(C)(C)[C@@H]6CC[C@@]5(C)[C@]4(C)CC2=O)[C@@H]3C1 [CLETHROIDOSIDE D]    1360

Turning to the following compound.
Query: Would you mind telling me what IC50 value was observed for C[C@@H]1O[C@@H](O[C@H]2[C@H](O[C@H]3CO[C@@H](O[C@H]4CC[C@]5(C)[C@H]6CC[C@]78OC[C@@]9(CCC(C)(C)C[C@H]97)[C@H](O)C[C@@]8(C)[C@]6(C)CC[C@H]5C4(C)C)[C@H](O[C@@H]4O[C@H](CO)[C@@H](O)[C@H](O)[C@H]4O)[C@H]3O)O[C@H](CO)[C@@H](O)[C@@H]2O)[C@H](O)[C@H](O)[C@H]1O ?
Reply: 2070

---

- Tested on: BGC-823
- Test Name: Cytotoxicity against human BGC823 cells by MTT assay
- Type: functional, cell-based
# maps each entry to its pIC50
To interpret pIC50, take it as minus log10 of a concentration measured in moles per litre.

C[C@@H]1O[C@@H](O[C@H]2[C@H](O[C@H]3CO[C@@H](O[C@H]4CC[C@]5(C)[C@H]6CC[C@]78OC[C@@]9(CCC(C)(C)C[C@H]97)C(=O)C[C@@]8(C)[C@]6(C)CC[C@H]5C4(C)C)[C@H](O[C@@H]4O[C@H](CO)[C@@H](O)[C@H](O)[C@H]4O)[C@H]3O)O[C@H](CO)[C@@H](O)[C@@H]2O)[C@H](O)[C@H](O)[C@H]1O [CLETHROIDOSIDE C]    5.71

Turning to the following molecule.
Query: Recall the recorded pIC50 for CC(=O)OC[C@H]1O[C@@H](O[C@H]2[C@H](O[C@H]3CC[C@]4(C)[C@H]5CC[C@]67OC[C@@]8(CCC(C)(C)C[C@H]86)[C@H](O)C[C@@]7(C)[C@]5(C)CC[C@H]4C3(C)C)OC[C@H](O[C@@H]3O[C@H](CO)[C@@H](O)[C@H](O)[C@H]3O[C@@H]3O[C@@H](C)[C@H](O)[C@@H](O)[C@H]3O)[C@@H]2O)[C@H](O)[C@@H](O)[C@@H]1O [CLETHROIDOSIDE E] with BGC-823 and state it.
Reply: 5.09
